experiment: growth inhibitors of tim23-1 mutant yeast, primary screen, luminescence, uHTS (AID 463212);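 note: temperature-sensitive mutant grown at 25 °C; plate controls were DMSO-treated mutant yeast for no effect and medium wells lacking yeast for full effect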; details: S. cerevisiae tim23-1 growth, BacTiter-Glo luminescence, 24 h; at 20 µM; active compounds read high
Hit rate of the full screen: of about 330,000 compounds, about 4,400 (1.3%) were called active. The list comes from a sample in which actives are over-represented; it also holds close analogues and randomly drawn compounds.
Assign MET whenever inhibition does not fall below 50%; assign NOT MET whenever it does.

# MOLECULE, ASSIGNED LABEL
measured = [
    ("Cc1nn(Cc2ccc(F)cc2)c(C)c1NC(=O)c1cccnc1Cl", "NOT MET"),
    ("O=C(c1ccccn1)c1ncc(C(F)(F)F)cc1Cl", "NOT MET"),
    ("O=C(CNc1cccc(S(=O)(=O)N2CCCCC2)c1)Nc1ccccc1F", "NOT MET"),
    ("N/C(=N\\OC(=O)CCCC(=O)O)c1ncc(C(F)(F)F)cc1Cl", "NOT MET"),
    ("CC(C)CCNC(=O)c1ccc2c(Cl)c3c(nc2c1)CCC3", "NOT MET"),
    ("CCCCC(CC)CNC(=O)C(=O)C1C(=O)Nc2ccccc21 (centres undefined)", "MET"),
    ("N/C(=N\\OC(=O)Nc1ccc(Cl)c(Cl)c1)c1ncc(C(F)(F)F)cc1Cl", "MET"),
    ("Cc1cccc(CC(=O)N2CCN=C2SCc2ccc([N+](=O)[O-])cc2)c1", "NOT MET"),
    ("Cc1nn(Cc2ccc(Cl)c(Cl)c2)c(C)c1NC(=O)c1cc(C2CC2)on1", "MET"),
]

====

Listing of recorded inhibition by entry.
assay: growth inhibitors of tim23-1 mutant yeast, primary screen, luminescence, uHTS (AID 463212);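 note: temperature-sensitive mutant grown at 25 °C; plate controls were DMSO-treated mutant yeast for no effect and medium wells lacking yeast for full effect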; conditions: S. cerevisiae tim23-1 growth, BacTiter-Glo luminescence, 24 h; at 20 µM; active compounds read high
Screen size: about 330,000 compounds; about 4,400 (1.3%) were called active. Only a selection was taken, and actives are over-represented in it overall.

# COMPOUND, inhibition, %
records = [
    ("CC(=NCc1ccco1)c1c(C(F)(F)F)[nH]n(-c2nc3ccccc3s2)c1=O", 22.4),
    ("Cc1c(Br)ccc(NC(=O)COc2ccccc2C(N)=O)c1C", 3.99),
    ("C[C@@H]1C(c2ccc(F)cc2)=NN(c2ccc(Br)cc2)[C@H]1C(=O)N1CCOC1=O", 61.2),
    ("CC(C(=O)NC1CCCC1)N(c1ccc(Oc2ccccc2)cc1)S(C)(=O)=O (stereo not drawn)", 29.3),
    ("CC(C)CNC(=O)COC(=O)c1ccccc1OCC(=O)Nc1ccc(Br)cc1", -11.3),
    ("Cc1cccc(Nc2nc(-c3ccccc3)cs2)n1", 55.1),
    ("CC(C(=O)Nc1ccccc1-c1ccccc1)N1CCOCC1 (stereo not drawn)", 7.67),
    ("O=C(COC(=O)c1ccc([N+](=O)[O-])cc1Cl)NC(=O)c1ccccc1", -6.06),
    ("CC1CCC(NC(=O)C2c3ccccc3C(=O)N2Cc2ccc3c(c2)OCO3)CC1 (stereo not drawn)", 9.09),
    ("CCC(=O)Nc1ccc(C(=O)CSc2nnc(CNc3ccc(Cl)cc3)o2)cc1OC", -7.17),
    ("CCOc1cc(NC(=O)c2ccccc2C(=O)O)c(OCC)cc1NC(=O)c1ccccc1F", 53),
    ("NS(=O)(=O)c1ccc(CCNS(=O)(=O)c2cccc3cccnc23)cc1", 11.4),
    ("CCNC(=O)NC(=O)C(C)OC(=O)c1cc(S(=O)(=O)N2CCCCCC2)ccc1OC (stereo not drawn)", 19.4),
    ("Cc1ccccc1Nc1nc(-c2cccnc2)cs1", 33.4),
    ("Cc1ccoc1C(=O)Nc1cccc(Oc2ccccc2)c1", 77.9),
    ("O=[N+]([O-])c1ccccc1S(=O)(=O)Nc1cccc2cccnc12", 57.4),
    ("Cc1cccc(NC(=O)Nc2cccc(Oc3c(F)c(F)c(F)c(F)c3F)c2)c1", 17),
    ("C=CCn1c(=O)c(C(=O)Nc2ncccc2O)c(O)c2ccccc21", 33.8),
    ("CC[C@]12c3[nH]c4ccc(Cl)cc4c3CCN1C(=O)[C@@H](CC(=O)NCCN1CCOCC1)C[C@@H]2C(=O)N1CCN(C(=O)C2CC2)CC1", 24.7),
    ("C=C(C)C(=O)O[C@H]1C/C(C)=C\\C(=O)/C=C(\\C)[C@H](O)[C@@H]2OC(=O)C(=C)[C@@H]21", 4.97),
    ("Cc1c(Cl)cccc1NC(=O)CSc1ccc(-c2cccnc2)nn1", 2.22),
    ("O=C1OCCN1C(=O)[C@H]1[C@H](c2ccccc2)C(c2ccc(F)cc2)=NN1c1ccccc1", 49.4),
    ("Cc1ccc(C(=O)OC2CCCN(C)C2)cc1 (stereo not drawn)", -2.9),
    ("CCOC(=O)Cc1cc(=O)[nH]c(/N=C(\\N)Nc2ccc(OC)cc2)n1", -4.74),
    ("CCc1noc(C)c1C(=O)Nc1nc(-c2ccccc2)cs1", 22.5),
    ("CCOc1ccccc1/C=c1\\sc2nc(-c3ccco3)nn2c1=O", 52.2),
    ("O=C(c1cnn2ccccc12)N1CCc2ccccc21", 5.86),
    ("O=C1c2cccc3c([N+](=O)[O-])ccc(c23)C(=O)N1CC1CCCO1 (stereo not drawn)", 87),
    ("CN(CC(=O)Nc1ccccc1[N+](=O)[O-])Cc1ccc(Br)cc1", 1.11),
    ("O=C1C(C=NCC2CCCO2)=C(O)c2ccccc21 (stereo not drawn)", 6.49),
    ("O=C(Nc1ccccc1F)c1ccccc1-c1ccc(C(F)(F)F)cc1", 16),
    ("CCC(=O)Nc1sc(C(=O)Nc2ccccc2)c(C)c1C(=O)OC", 32),
    ("Cc1csc(NC(=S)Nc2cccc(Cl)c2)n1", 48.7),
    ("O=C(NOCc1ccccc1)c1cccc([N+](=O)[O-])c1", 40.8),
    ("COc1ccc(C(=O)COC(=O)CN2C(=O)C3CC=CCC3C2=O)c(OC)c1 (stereo not drawn)", 12.1),
    ("Cc1ccc(C(=O)N/C(=C\\c2ccco2)C(=O)NC2CCS(=O)(=O)C2)cc1 (stereo not drawn)", 24.1),
    ("CN1CN(C)c2ccc([N+](=O)[O-])c3cccc1c23", 9.47),
    ("CC(C)(C)n1nnnc1C(c1ccccc1F)N1CCN(C(=O)c2ccco2)CC1 (stereo not drawn)", 19.8),
    ("CC(=NCc1ccco1)C1=C(O)c2ccccc2C1=O", 50.3),
    ("Cc1nc2cc(S(=O)(=O)C(F)(F)F)ccc2s1", -1.26),
    ("O=C1OCCN1C(=O)[C@H]1[C@H](c2ccc(F)cc2)C(c2ccccc2)=NN1c1ccc(Br)cc1", 41.6),
    ("CCC(=O)Nc1nc(C)c(C(=O)Nc2cccc(Cl)c2)s1", 57.9),
    ("CCOc1ccccc1NC(=O)c1cc(S(=O)(=O)N2CCC3(CC2)OCCO3)ccc1F", 24.5),
]

====

test: growth inhibitors of tim23-1 mutant yeast, primary screen, luminescence, uHTS (AID 463212);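 note: temperature-sensitive mutant grown at 25 °C; plate controls were DMSO-treated mutant yeast for no effect and medium wells lacking yeast for full effect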; details: S. cerevisiae tim23-1 growth, BacTiter-Glo luminescence, 24 h; at 20 µM
Among all 330,000 compounds or so, about 4,400 (1.3%) were called active.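 How the source made its calls: active means growth inhibition of the mutant yeast at or above 50%; inactive means the rest.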 For the sample, actives were picked, then their nearest neighbours and some compounds at random.
Outcome codes: y for active, n for inactive

# COMPOUND, ASSIGNED LABEL
records = [
    ("COCCOCCn1cnc2ccccc21", "n"),
    ("O=C(NCc1ccc2c(c1)OCO2)C1CCCN(S(=O)(=O)c2cccs2)C1 (stereo unspecified)", "n"),
    ("Cc1ccc(S(=O)(=O)NC(=O)N2CCCN(Cc3ccc(F)cc3)CC2)cc1", "n"),
    ("O=C(N/N=C/c1cccc(Br)c1)c1ccc(N2CCCC2=O)cc1", "n"),
    ("CCOCCOCCC(C(=O)O)P(=O)(c1ccccc1)c1ccccc1 (stereo unspecified)", "n"),
    ("O=C1CN(c2nc(-c3ccccc3)c3cc(Br)ccc3n2)c2ccccc2N1", "n"),
    ("Clc1ncn(CCOc2ccccc2)c1Cl", "n"),
    ("CC(C)=CCC/C(C)=C/C(=O)O", "n"),
    ("Cc1ccc(C(=O)NCC(=O)NCc2cc(=O)n(C)c(=O)n2C)cc1", "n"),
    ("COc1cccc(-c2nnc(NC(=O)c3ccc(S(=O)(=O)N(CC(C)C)CC(C)C)cc3)o2)c1", "n"),
    ("O=C(N/N=C\\c1cccc(Br)c1)c1ccccc1-n1cccc1", "y"),
]

====

assay: growth inhibitors of tim23-1 mutant yeast, primary screen, luminescence, uHTS (AID 463212);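 note: temperature-sensitive mutant grown at 25 °C; plate controls were DMSO-treated mutant yeast for no effect and medium wells lacking yeast for full effect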; conditions: S. cerevisiae tim23-1 growth, BacTiter-Glo luminescence, 24 h; at 20 µM; active compounds read high
Out of some 330,000 compounds screened, about 4,400 (1.3%) were called active. Only a selection was taken, and actives are over-represented in it overall.
Assign 1 (yes) whenever inhibition does not fall below 30%; assign 0 (no) whenever it does.

# MOLECULE, ASSIGNED LABEL
rows = [
    ("C/C(=N\\NC(=S)NCc1ccccc1)c1ccc(Cl)cc1", "1 (yes)"),
    ("CC(C)NC(=O)/C(C#N)=C\\c1ccc(N(C)C)c(Br)c1", "1 (yes)"),
    ("CCOC(=O)c1c(NC(C)=O)sc2c(O)c(Br)ccc12", "0 (no)"),
    ("Cc1[nH]c2ccccc2c1/C=C(/C#N)C(=O)NC(C)C", "0 (no)"),
    ("CCOC(=O)C1CCN(C(=O)c2cccc(S(=O)(=O)N(CC)c3ccccc3)c2)CC1", "0 (no)"),
    ("CCc1nnc(NS(=O)(=O)c2ccc(NC(=S)NC(=O)/C=C/c3cccs3)cc2)s1", "1 (yes)"),
    ("O=S(=O)(Nc1cccc(-n2cnnn2)c1)c1cnc(Cl)c(Cl)c1", "0 (no)"),
    ("Cc1ccccc1NCC(=O)N/N=C\\c1ccc([N+](=O)[O-])s1", "1 (yes)"),
    ("COc1cc(/C=N/Nc2nc3ccccc3s2)ccc1O", "1 (yes)"),
    ("Cc1cccc(-[n+]2c(-c3cccc(Br)c3)[nH]c3nc4ccccc4nc32)c1", "0 (no)"),
    ("O=C(N[C@H]1C/C=C\\C(c2ccc(F)cc2)N(Cc2ccccc2)C(=O)C1)OCC1c2ccccc2-c2ccccc21 (stereo partly drawn)", "1 (yes)"),
    ("Cc1nn(CC(=O)N2CCCCC2)c(=O)c2nn(-c3ccccc3)c(C)c12", "0 (no)"),
    ("CCOc1cc(/C=N/Nc2cc(C)nc3ccc(C)cc23)ccc1O", "1 (yes)"),
    ("CN(c1ccccc1)S(=O)(=O)c1cccc(NC(=O)Cc2c(F)cccc2Cl)c1", "0 (no)"),
    ("CCCCCCc1cc2cc(-c3nnc(-c4ccccc4)o3)c(=O)oc2cc1O", "0 (no)"),
    ("CN(C)c1ccc(N/C=C/C(=O)C(F)(F)F)cc1", "0 (no)"),
    ("Cc1cc(=O)oc(C)c1C(=O)NC1CC(C)(C)NC(C)(C)C1", "0 (no)"),
    ("CCOc1ccc(C(=O)CCC(=O)Nc2ccncc2)cc1", "0 (no)"),
    ("C/C(=N\\NC(=S)NCc1ccccc1)C1CCCCC1", "0 (no)"),
    ("COc1cccc(CNC(=O)C2CCCN(S(=O)(=O)N3CC(C)CC(C)C3)C2)c1 (stereo not drawn)", "0 (no)"),
    ("COc1cc(NS(=O)(=O)c2ccc(NC(=O)c3ccc(S(=O)(=O)N4CCCCC4)cc3)cc2)ncn1", "0 (no)"),
    ("O=C(Nc1nc(-c2ccco2)c(-c2ccco2)s1)c1ccco1", "1 (yes)"),
    ("COC(=O)c1cn(C)c2ccc(S(=O)(=O)N3CC(C)CC(C)C3)cc2c1=O (stereo not drawn)", "0 (no)"),
    ("O=C(/C=C/c1ccc(Cl)cc1Cl)c1cccnc1", "1 (yes)"),
    ("O=C(Cc1c(F)cccc1Cl)Nc1ncc([N+](=O)[O-])s1", "1 (yes)"),
    ("C/C(CC(=O)Nc1cccc(F)c1)=N\\NC(=O)C(=O)NC1CCCCC1", "0 (no)"),
    ("O=C(Nc1cccc(F)c1)NC1CCCc2ccccc21 (stereo not drawn)", "0 (no)"),
    ("O=C(/C=C/c1ccc(Cl)c([N+](=O)[O-])c1)c1cccnc1", "1 (yes)"),
    ("O=C(O)c1ccc(/C=N/NC(=S)NCc2ccccc2)cc1", "0 (no)"),
    ("CCCc1c(C(=O)O)cnn1-c1ccc(Cl)cc1", "0 (no)"),
    ("CC(=O)C1=C(C)NC(=O)NC1c1ccc2c(c1)OCO2 (stereo not drawn)", "0 (no)"),
    ("CCCCCCc1ccc(O)cc1O", "1 (yes)"),
    ("O=C(c1cc2ccccc2o1)N1CCN(Cc2ccccc2)CC1", "0 (no)"),
    ("c1ccc2cc(CCCc3cc4ccccc4cn3)ncc2c1", "1 (yes)"),
    ("CCc1nnc(NS(=O)(=O)c2ccc(NC(=O)c3cccc(OC(F)(F)C(F)F)c3)cc2)s1", "0 (no)"),
    ("CCOc1ccc(NC(=O)CCC(=O)n2nc(C)cc2C)cc1", "0 (no)"),
    ("CCCc1c(C(=O)Nc2ccc(F)cc2)cnn1-c1ccccc1", "1 (yes)"),
    ("CC[C@]12c3[nH]c4ccc(OC)cc4c3CCN1C(=O)C(CC(=O)NCCN1CCOCC1)C[C@@H]2C(=O)N1CCN(C(=O)C2CC2)CC1 (stereo partly drawn)", "0 (no)"),
    ("O=C1C(=O)N(CCCO)C(c2ccccc2)/C1=C(\\O)c1ccc(Br)cc1 (stereo not drawn)", "0 (no)"),
    ("N#Cc1ccc(N2Cc3ccccc3/C2=N/C(=O)Nc2ccc(Cl)cc2)cc1", "0 (no)"),
    ("CC(=O)c1ccc(NC(=O)C2CCCN2S(=O)(=O)c2cccs2)cc1 (stereo not drawn)", "0 (no)"),
    ("CCOc1ccc(NC(=O)CCC(=O)N/N=C/c2ccc([N+](=O)[O-])s2)cc1", "1 (yes)"),
]
